Source of measurements: ChEMBL document CHEMBL3885861

# Organism: Rattus norvegicus
# experiment-description: Open TG-GATES - Regimen: Daily Repeat
# Type: toxicity, organism-based, Sprague-Dawley
# Set-up: regimen Daily Repeat, gender Male, age 6 weeks
# particulars: in vivo, po, 1000 mg/kg, […], tissue Blood, route gavage, dose level High, time 7 day
Could you please report measured Hb for the items listed next?
Field: value (include unit after the number)

Sample answers from the record:
COC1=CC(=O)C[C@@H](C)[C@]12Oc1c(Cl)c(OC)cc(OC)c1C2=O :: 13.3 g/dL
CCOc1ccc(NC(=O)CC(C)O)cc1 (stereo not given) :: 12.7 g/dL

Your task in this section: give Hb for each listed record.
1. NC(N)=Nc1nc(CSCCC(N)=NS(N)(=O)=O)cs1
2. CCOC(=O)CCC(=O)O[C@H]1[C@H](O[C@@H]2[C@@H](C)[C@H](O[C@H]3C[C@@](C)(OC)[C@@H](O)[C@H](C)O3)[C@@H](C)C(=O)O[C@H](CC)[C@@](C)(O)[C@H](O)[C@@H](C)C(=O)[C@H](C)C[C@@]2(C)O)O[C@H](C)C[C@@H]1N(C)C [ERYTHROMYCIN ETHYLSUCCINATE]
3. COc1ccc2[nH]c([S+]([O-])Cc3ncc(C)c(OC)c3C)nc2c1 (stereo not given)

Solution:
13.6 g/dL
13.6 g/dL
12 g/dL

* * *

# Species on record: Rattus norvegicus
# experiment-description: Open TG-GATES - Regimen: Single
# Type: toxicity, organism-based, Sprague-Dawley
# Parameters: regimen Single, gender Male, age 6 weeks
# particulars: in vivo, po, 300 mg/kg, 6 h, tissue Kidney, route gavage, dose level Middle
property-name: KIDNEY_TOTAL (g)
Answers are plain numbers, in g.

CCOC(=O)CCC(=O)O[C@H]1[C@H](O[C@@H]2[C@@H](C)[C@H](O[C@H]3C[C@@](C)(OC)[C@@H](O)[C@H](C)O3)[C@@H](C)C(=O)O[C@H](CC)[C@@](C)(O)[C@H](O)[C@@H](C)C(=O)[C@H](C)C[C@@]2(C)O)O[C@H](C)C[C@@H]1N(C)C [ERYTHROMYCIN ETHYLSUCCINATE] :: 2
NC(N)=Nc1nc(CSCCC(N)=NS(N)(=O)=O)cs1 :: 1.9
COc1ccc2[nH]c([S+]([O-])Cc3ncc(C)c(OC)c3C)nc2c1 (centres undefined) :: 2

Exercise: Dear colleague, I am looking for the recorded KIDNEY_TOTAL of the following molecule: `COC1=CC(=O)C[C@@H](C)[C@]12Oc1c(Cl)c(OC)cc(OC)c1C2=O`
Solution: 2

* * *

Could you please report measured WBC for the items listed next?
# Species: Rattus norvegicus
# experiment-description: Open TG-GATES - Regimen: Daily Repeat
# Format: toxicity, organism-based, Sprague-Dawley
# Design: regimen Daily Repeat, gender Male, age 6 weeks
# particulars: in vivo, po, 0 mg/kg, 72 h, tissue Blood, route gavage, dose level Control, time 3 day
Numbers only, in x10_2/uL.

CN(C)CCN(Cc1cccs1)c1ccccn1 :: 107.9
CCOC(=O)CCC(=O)O[C@H]1[C@H](O[C@@H]2[C@@H](C)[C@H](O[C@H]3C[C@@](C)(OC)[C@@H](O)[C@H](C)O3)[C@@H](C)C(=O)O[C@H](CC)[C@@](C)(O)[C@H](O)[C@@H](C)C(=O)[C@H](C)C[C@@]2(C)O)O[C@H](C)C[C@@H]1N(C)C [ERYTHROMYCIN ETHYLSUCCINATE] :: 96.6

Exercise: Dear colleague, I am looking for the recorded WBC of the following compound: `CC1=C(/C=C/C(C)=C/C=C/C(C)=C/CO)C(C)(C)CCC1`
Solution: 108.7

* * *

# Species: Rattus norvegicus
# experiment-description: Open TG-GATES - Regimen: Daily Repeat
# Type: toxicity, organism-based, Sprague-Dawley
# Parameters: regimen Daily Repeat, gender Male, age 6 weeks
# particulars: in vivo, po, 10 mg/kg, […], tissue Plasma, route gavage, dose level Low, time 7 day
property-name: GLC (mg/dL)
Numbers only, in mg/dL.

Sample answers from the record:
CN(C)CCN(Cc1cccs1)c1ccccn1 :: 174.6
CC1=C(/C=C/C(C)=C/C=C/C(C)=C/CO)C(C)(C)CCC1 [RETINOL] :: 193.2
CN(C)CCCN1c2ccccc2CCc2ccccc21 [IMIPRAMINE] :: 182.6

Shift focus to the following entry.
Exercise: Dear colleague, I am looking for the recorded GLC of the following molecule: CC(C)OC(=O)C(C)(C)Oc1ccc(C(=O)c2ccc(Cl)cc2)cc1 [FENOFIBRATE]
Solution: 187.2

* * *

# Organism: Rattus norvegicus
# experiment-description: Open TG-GATES - Regimen: Single
# Format: toxicity, organism-based, Sprague-Dawley
# Parameters: regimen Single, gender Male, age 6 weeks
# particulars: in vivo, po, 0 mg/kg, 24 h, tissue Plasma, route gavage, dose level Control
property-name: Cl (meq/L)
Answers are plain numbers, in meq/L.

Cc1ccc(C)c(OCCCC(C)(C)C(=O)O)c1 :: 104.8
NNC(=O)c1ccncc1 :: 103.8

Your task in this section: give Cl for each listed record.
1. O=C(CCCN1CCC(O)(c2ccc(Cl)cc2)CC1)c1ccc(F)cc1
2. CCOC(=O)CCC(=O)O[C@H]1[C@H](O[C@@H]2[C@@H](C)[C@H](O[C@H]3C[C@@](C)(OC)[C@@H](O)[C@H](C)O3)[C@@H](C)C(=O)O[C@H](CC)[C@@](C)(O)[C@H](O)[C@@H](C)C(=O)[C@H](C)C[C@@]2(C)O)O[C@H](C)C[C@@H]1N(C)C [ERYTHROMYCIN ETHYLSUCCINATE]
3. CCOc1ccc(NC(=O)CC(C)O)cc1 (stereo not given)

Solution:
1. 104.6
2. 106.6
3. 105.2

* * *

Could you please report measured K for the items listed next?
# Species: Rattus norvegicus
# experiment-description: Open TG-GATES - Regimen: Single
# Type: toxicity, organism-based, Sprague-Dawley
# Parameters: regimen Single, gender Male, age 6 weeks
# particulars: in vivo, po, 1000 mg/kg, 6 h, tissue Plasma, route gavage, dose level High

Sample answers from the record:
CCOC(=O)CCC(=O)O[C@H]1[C@H](O[C@@H]2[C@@H](C)[C@H](O[C@H]3C[C@@](C)(OC)[C@@H](O)[C@H](C)O3)[C@@H](C)C(=O)O[C@H](CC)[C@@](C)(O)[C@H](O)[C@@H](C)C(=O)[C@H](C)C[C@@]2(C)O)O[C@H](C)C[C@@H]1N(C)C [ERYTHROMYCIN ETHYLSUCCINATE] :: 4 meq/L
CC(C)OC(=O)C(C)(C)Oc1ccc(C(=O)c2ccc(Cl)cc2)cc1 [FENOFIBRATE] :: 4.2 meq/L
COc1ccc2[nH]c([S+]([O-])Cc3ncc(C)c(OC)c3C)nc2c1 (centres undefined) [OMEPRAZOLE] :: 4 meq/L

Shift focus to the following entry.
Exercise: Dear colleague, I am looking for the recorded K of the following compound: COC1=CC(=O)C[C@@H](C)[C@]12Oc1c(Cl)c(OC)cc(OC)c1C2=O [GRISEOFULVIN]
Solution: 4.1 meq/L

* * *

# Species on record: Rattus norvegicus
# experiment-description: Open TG-GATES - Regimen: Single
# Format: toxicity, organism-based, Sprague-Dawley
# Set-up: regimen Single, gender Male, age 6 weeks
# particulars: in vivo, po, 30 mg/kg, 9 h, tissue Plasma, route gavage, dose level Middle
property-name: GLC (mg/dL)
Numbers only, in mg/dL.

Sample answers from the record:
CN(C)CCCN1c2ccccc2CCc2ccc(Cl)cc21 :: 174
CN(C)CCN(Cc1cccs1)c1ccccn1 :: 166.6
CN(C)CCCN1c2ccccc2CCc2ccccc21 :: 191

Exercise: Dear colleague, I am looking for the recorded GLC of the following compound: `CC1=C(/C=C/C(C)=C/C=C/C(C)=C/CO)C(C)(C)CCC1`
Solution: 181

* * *

# Species: Rattus norvegicus
# experiment-description: Open TG-GATES - Regimen: Single
# Type: toxicity, organism-based, Sprague-Dawley
# Set-up: regimen Single, gender Male, age 6 weeks
# particulars: in vivo, po, 0 mg/kg, 24 h, tissue Plasma, route gavage, dose level Control
Could you please report measured ALT for the items listed next?
Answers are plain numbers, in IU/L.

Sample answers from the record:
CCOC(=O)CCC(=O)O[C@H]1[C@H](O[C@@H]2[C@@H](C)[C@H](O[C@H]3C[C@@](C)(OC)[C@@H](O)[C@H](C)O3)[C@@H](C)C(=O)O[C@H](CC)[C@@](C)(O)[C@H](O)[C@@H](C)C(=O)[C@H](C)C[C@@]2(C)O)O[C@H](C)C[C@@H]1N(C)C [ERYTHROMYCIN ETHYLSUCCINATE] :: 37.6
CC/C(=C(\c1ccccc1)c1ccc(OCCN(C)C)cc1)c1ccccc1 [TAMOXIFEN] :: 51.8
Cc1ccc(C)c(OCCCC(C)(C)C(=O)O)c1 [GEMFIBROZIL] :: 48
CC(C)OC(=O)C(C)(C)Oc1ccc(C(=O)c2ccc(Cl)cc2)cc1 [FENOFIBRATE] :: 50.4
NC(N)=Nc1nc(CSCCC(N)=NS(N)(=O)=O)cs1 [FAMOTIDINE] :: 34.2

Your task in this section: give ALT for each listed record.
1. CCOc1ccc(NC(=O)CC(C)O)cc1 (stereo not drawn) [BUCETIN]
2. CN(C)CCCN1c2ccccc2CCc2ccccc21 [IMIPRAMINE]
3. NNC(=O)c1ccncc1 [ISONIAZID]

Solution:
1. 40.4
2. 59
3. 34
